target: Peptidyl-prolyl cis-trans isomerase FKBP1A (Homo sapiens)
measurement_label: Ki (nM)

COc1cc2c(c(OC)c1)C1C3CCCC(C(=O)N1CC2)N3C(=O)C(=O)c1cccnc1 (stereo not drawn) : 110
COc1cc2c(c(OC)c1)C1C3CCCC(C(=O)N1CC2)N3S(=O)(=O)c1ccc(-c2ccc(Cl)c(Cl)c2)cc1 (stereo not drawn) : 156
CCc1ccc(S(=O)(=O)N2C3CCCC2C2c4c(cc(OC)cc4OC)CCN2C3=O)cc1 (stereo not drawn) : 266
COc1cc2c(c(OC)c1)C1C3CCCC(C(=O)N1CC2)N3C(=O)C(=O)c1cc(C(C)(C)C)c(O)c(C(C)(C)C)c1 (stereo not drawn) : 20800
COc1cc2c(c(OC)c1)C1C3CCCC(C(=O)N1CC2)N3C(=O)C(=O)c1cccc(Cl)c1Cl (stereo not drawn) : 282
COc1cc2c(c(OC)c1)C1C3CCCC(C(=O)N1CC2)N3S(=O)(=O)c1ccccc1 (stereo not drawn) : 244
COc1cc2c(c(OC)c1)C1C3CCCC(C(=O)N1CC2)N3C(=O)N(c1ccc(F)cc1F)c1ccc(F)cc1F (stereo not drawn) : 7000
COc1cc2c(c(OC)c1)C1C3CCCC(C(=O)N1CC2)N3C(=O)N(c1ccc([N+](=O)[O-])cc1)c1ccc([N+](=O)[O-])cc1 (stereo not drawn) : 772

(P) COc1cc2c(c(OC)c1)C1C3CCCC(C(=O)N1CC2)N3C(=O)C(=O)c1ccc(Br)cc1 (stereo not drawn)
(Q) COc1cc(C(=O)C(=O)N2C3CCCC2C2c4ccc(Cl)cc4CCN2C3=O)cc(OC)c1OC (stereo not drawn)
(R) COc1cc2c(c(OC)c1)C1C3CCCC(C(=O)N1CC2)N3S(=O)(=O)c1ccc(Nc2cc(OC)c(OC)c(OC)c2)cc1 (stereo not drawn)
(S) COc1cc2c(c(OC)c1)C1C3CCCC(C(=O)N1CC2)N3C(=O)C(=O)c1cc2ccccc2[nH]1 (stereo not drawn)
Q: # desc sort on Ki across 4 compounds Write out the labels following the order that was asked for.
Ans: S, R, Q, P

* * *

target: Peptidyl-prolyl cis-trans isomerase FKBP1A (Homo sapiens, UniProt P62942)
Sequence (P62942 whole entry): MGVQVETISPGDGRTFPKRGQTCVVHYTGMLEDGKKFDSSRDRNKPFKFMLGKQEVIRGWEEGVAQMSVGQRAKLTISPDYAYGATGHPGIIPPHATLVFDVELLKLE
measurement_label: Ki (nM)

COc1ccc2c(c1)CCN1C(=O)C3CCCC(C21)N3S(=O)(=O)Nc1cc(F)c(F)cc1F (stereo unspecified) : 590
COc1cc2c(c(OC)c1)C1C3CCCC(C(=O)N1CC2)N3C(=O)C(=O)c1ccccc1Cl (stereo unspecified) : 583
COc1cc(C(=O)C(=O)N2C3CCCC2C2c4c(F)cccc4CCN2C3=O)cc(OC)c1OC (stereo unspecified) : 201
COc1ccc(C(=O)C(=O)N2C3CCCC2C2c4c(cc(OC)cc4OC)CCN2C3=O)cc1 (stereo unspecified) : 131
COc1cc2c(c(OC)c1)C1C3CCCC(C(=O)N1CC2)N3S(=O)(=O)c1cccc(Br)c1 (stereo unspecified) : 54

(A) COc1cc2c(c(OC)c1)C1C3CCCC(C(=O)N1CC2)N3C(=O)C(=O)c1ccc(OC)c(OC)c1 (stereo unspecified)
(B) COc1cc(C(=O)C(=O)N2C3CCCC2C2c4cc(Cl)ccc4CCN2C3=O)cc(OC)c1OC (stereo unspecified)
Q: Parameter check: reported Ki is higher for which label, A or B ? Field: selected label. Fill in the label of the entry you choose.
Ans: B
(B: 126 nM, A: 60 nM)

* * *

pKi: −log10 of the molar value.
The following are reported pKi results, target or system Peptidyl-prolyl cis-trans isomerase FKBP1A (Homo sapiens).
measurement_label: pKi

COc1cc2c(c(OC)c1)C1C3CCCC(C(=O)N1CC2)N3C(=O)N(c1ccccc1C)c1ccccc1C (centres undefined) : 6.48
COc1cc(C(=O)C(=O)N2C3CCCC2C2c4cc(F)ccc4CCN2C3=O)cc(OC)c1OC (centres undefined) : 6.65
COc1ccc2c(c1)CCN1C(=O)C3CCCC(C21)N3S(=O)(=O)Nc1ccc(OC)nc1 (centres undefined) : 6.68
COc1cccc2c1CCN1C(=O)C3CCCC(C21)N3C(=O)C(=O)c1cc(OC)c(OC)c(OC)c1 (centres undefined) : 6.98

Data credit: ChEMBL document CHEMBL1149428
